B1: TPR t1 (parent)
chain: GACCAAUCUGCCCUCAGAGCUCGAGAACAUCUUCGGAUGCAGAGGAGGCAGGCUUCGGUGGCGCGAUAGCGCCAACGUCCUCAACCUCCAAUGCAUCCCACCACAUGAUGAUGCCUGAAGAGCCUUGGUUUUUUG

variants of: B1; test: polymerase ribozyme fitness, log enrichment relative to wild type (log ratio); higher = more active; in vitro selection for triplet polymerase activity
Outcome label depends on polymerase ribozyme fitness (log ratio) relative to -3: at/above gives T, below gives F.

[[record]]
variant_key = "A6U A26U G39A C49G G61A C88U C124G"
label_class = "F"

[[record]]
variant_key = "G51U C62A"
label_class = "F"

[[record]]
variant_key = "C12U C20G A43C G48A C62U"
label_class = "F"

[[record]]
variant_key = "A6U C40A G60U A105C"
label_class = "F"

[[record]]
variant_key = "C40G C115U"
label_class = "T"

[[record]]
variant_key = "C13U G44A C49U C86G C102U U106G U112G A121C U131A U133A"
label_class = "F"

[[record]]
variant_key = "U9A G42A C70U U129A"
label_class = "F"

[[record]]
variant_key = "G42U G48U"
label_class = "F"

[[record]]
variant_key = "C73G G113C"
label_class = "T"

[[record]]
variant_key = "G71U G117A"
label_class = "T"

[[record]]
variant_key = "G61C C104U A111C"
label_class = "T"

[[record]]
variant_key = "G39A G57U C80A A121C"
label_class = "T"

[[record]]
variant_key = "C12U C20U C40U C49G"
label_class = "T"

[[record]]
variant_key = "C31A G44U G69A A100C U109G G135U"
label_class = "F"

[[record]]
variant_key = "C28U C62U G69U"
label_class = "T"

[[record]]
variant_key = "C8G C11U"
label_class = "T"

[[record]]
variant_key = "G36A C64U C72A U106A"
label_class = "T"

[[record]]
variant_key = "A43C A74G C101A A111G"
label_class = "F"

[[record]]
variant_key = "G77A A91G"
label_class = "T"

[[record]]
variant_key = "C13U G45A G51U C115A"
label_class = "F"

[[record]]
variant_key = "U130G U131A"
label_class = "T"

[[record]]
variant_key = "C82A C89A"
label_class = "T"

[[record]]
variant_key = "A6G C8A U55A"
label_class = "T"

[[record]]
variant_key = "A2U C40A G128U"
label_class = "F"

[[record]]
variant_key = "U96G U129C"
label_class = "T"

[[record]]
variant_key = "C4A G61U A105U"
label_class = "F"

[[record]]
variant_key = "A16U C56A"
label_class = "T"

[[record]]
variant_key = "A2G G122A U129C"
label_class = "T"

[[record]]
variant_key = "C82A C102U"
label_class = "T"

[[record]]
variant_key = "C3U G117A"
label_class = "T"

[[record]]
variant_key = "C11G C73A"
label_class = "T"

[[record]]
variant_key = "C56U U92C U106A"
label_class = "T"

[[record]]
variant_key = "C11U A43U"
label_class = "T"

[[record]]
variant_key = "C22G G35U A121C U132C"
label_class = "F"

[[record]]
variant_key = "C12U A111G"
label_class = "T"

[[record]]
variant_key = "A91C C114G"
label_class = "T"

[[record]]
variant_key = "C28U G110A"
label_class = "T"

[[record]]
variant_key = "U7A C56U G120U"
label_class = "T"

[[record]]
variant_key = "C86A U112A"
label_class = "T"

[[record]]
variant_key = "C12A C28G C34A C80U C123A"
label_class = "F"

[[record]]
variant_key = "A26C C88U"
label_class = "F"

[[record]]
variant_key = "A37G C76U"
label_class = "T"

